I'd be grateful if you could share measured APOE RNA (% UTC) for these entries.
# Tested on: human APOE RNA
# PROTOCOL_DETAILS: Dose-dependent inhibition of human APOE RNA in HepG2 cells, electroporation, 24 hours (Example 6)
# Format: cell-based
# EXPERIMENTAL_PARAMETERS: 82 nM
Strand notation (5' to 3'): a small letter for the sugar, then the base; units joined by * are phosphorothioate-linked, units joined directly phosphodiester-linked; [ ] holds rarer units or linkages, { } end groups; capitals alone tell only the bases. [ms] = mesyl phosphoramidate linkage; e = 2'-O-(2-methoxyethyl) (MOE); k = constrained ethyl (cEt); [5mC] = 5-methylcytosine; d = 2'-deoxy (DNA)
# unit: % UTC | format: bare number

Input: Consider the substance 1736523: 6-10-4 MOE gapmer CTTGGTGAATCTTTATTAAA, linkages ssoooszzssssssssoss (e[5mC]*eT*eTeGeGeT*dG[ms]dA[ms]dA*dT*d[5mC]*dT*dT*dT*dA*dT*eTeA*eA*eA) [compound 1736523] . State its measured APOE RNA (% UTC).
Output: 79

Input: Consider the substance 1693102: 6-10-4 MOE gapmer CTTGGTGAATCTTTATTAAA, linkages ssssoszzzssssszssss (e[5mC]*eT*eT*eG*eGeT*dG[ms]dA[ms]dA[ms]dT*d[5mC]*dT*dT*dT*dA[ms]dT*eT*eA*eA*eA) [compound 1693102] . State its measured APOE RNA (% UTC).
Output: 92

Input: Consider the substance 1736518: 6-10-4 MOE gapmer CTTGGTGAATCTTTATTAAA, linkages soossszzzssssssssss (e[5mC]*eTeTeG*eG*eT*dG[ms]dA[ms]dA[ms]dT*d[5mC]*dT*dT*dT*dA*dT*eT*eA*eA*eA) [compound 1736518] . State its measured APOE RNA (% UTC).
Output: 83

Input: Consider the substance 1652902: 6-10-4 MOE gapmer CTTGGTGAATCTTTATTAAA, linkages sooooossssssssssoss (antisense e[5mC]*eTeTeGeGeTdG*dA*dA*dT*d[5mC]*dT*dT*dT*dA*dT*eTeA*eA*eA) [compound 1652902] . State its measured APOE RNA (% UTC).
Output: 44

Input: Consider the substance 1736516 (e[5mC]*eTeTeG*eG*kT*dG[ms]dA[ms]dA[ms]dT*d[5mC]*dT*dT*dT*dA[ms]dT*eT*eA*eA*eA; antisense) [Compound 1736516] . State its measured APOE RNA (% UTC).
Output: 117

Input: Consider the substance 1736534 (e[5mC]*eT*eT*eG*eGeT*dG[ms]dA[ms]dA[ms]dT*d[5mC]*dT*dT*dT*dA[ms]dT*kT*kA*eA*eA; antisense) [Compound 1736534] . State its measured APOE RNA (% UTC).
Output: 103

Input: Consider the substance 1736526: 6-10-4 MOE gapmer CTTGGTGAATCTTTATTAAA, linkages ssoooszzsssssssssss (e[5mC]*eT*eTeGeGeT*dG[ms]dA[ms]dA*dT*d[5mC]*dT*dT*dT*dA*dT*eT*eA*eA*eA) [compound 1736526] . State its measured APOE RNA (% UTC).
Output: 85

Input: Consider the substance 1736535 (e[5mC]*eT*eT*eG*eGkT*dG[ms]dA[ms]dA[ms]dT*d[5mC]*dT*dT*dT*dA[ms]dT*eT*eA*eA*eA; antisense) [Compound 1736535] . State its measured APOE RNA (% UTC).
Output: 93

Input: Consider the substance 1736528 (e[5mC]*eT*eT*eG*eG*eTdG[ms]dA[ms]dA[ms]dT*d[5mC]*dT*dT*dT*dA[ms]dT*kT*eA*eA*eA; antisense) [Compound 1736528] . State its measured APOE RNA (% UTC).
Output: 116
